- Assay context: in propylene glycol, 303.15 K
Assay metric: solubility (mole fraction)

Challenge: Supply measured solubility (mole fraction) of COc1c(O)cc2c(c1O)[C@@H]1O[C@H](CO)[C@@H](O)[C@H](O)[C@H]1OC2=O in your reply.
Response given: 0.00873

* * *

- Assay context: in ethanol, 298.15 K
Assay metric: solubility (mole fraction)
Please state the value as a number alone, without comment.

Challenge: Supply measured solubility (mole fraction) of COc1c(O)cc2c(c1O)[C@@H]1O[C@H](CO)[C@@H](O)[C@H](O)[C@H]1OC2=O in your reply.
Response given: 0.00469

* * *

- Assay context: in PEG-400, 303.15 K
Assay metric: solubility (mole fraction)
Please state the value as a number alone, without comment.

Challenge: Supply measured solubility (mole fraction) of COc1c(O)cc2c(c1O)[C@@H]1O[C@H](CO)[C@@H](O)[C@H](O)[C@H]1OC2=O in your reply.
Response given: 0.0277

* * *

- Assay context: in ethyl acetate, 318.15 K
Assay metric: solubility (mole fraction)
Please state the value as a number alone, without comment.

Challenge: Supply measured solubility (mole fraction) of COc1c(O)cc2c(c1O)[C@@H]1O[C@H](CO)[C@@H](O)[C@H](O)[C@H]1OC2=O in your reply.
Response given: 0.000671

* * *

- Assay context: in sec-butanol, 318.15 K
Assay metric: solubility (mole fraction)
Please state the value as a number alone, without comment.

Challenge: Supply measured solubility (mole fraction) of COc1c(O)cc2c(c1O)[C@@H]1O[C@H](CO)[C@@H](O)[C@H](O)[C@H]1OC2=O in your reply.
Response given: 0.000514
